# Tested on: HepG2
# protocol notes: Cytotoxicity against human HepG2 cells after 72 hrs by MTT assay
# Format: cell-based
# condition parameters: hepg2, 72 h
Catalogue of CC50 readings, one per entry.

{"smiles record": "O=C(Nc1nc2cc(-c3cccnc3)ccn2n1)c1cccc(Cl)c1", "target system": "HepG2", "CC50": "> 100 µM"}

// moving on: another record for CC50
Q: Which CC50 reading was recorded for the compound O=C(Nc1nc2cc(-c3ccccc3)ccn2n1)c1cccc(Cl)c1 ?
Result: > 100 µM

----------
Below, each entry is listed with its recorded Papp at 5 h, 10 µM.
# protocol notes: Permeability of the compound at 10 uM after 5 hrs by PAMPA
# Format: ADME
# condition parameters: read-out: permeability

Below, each entry is followed by its recorded Papp at 5 h, 10 µM result.
{"smiles record": "O=C(Nc1nc2nc(-c3ccccc3)ccn2n1)c1cccc([N+](=O)[O-])c1", "Papp at 5 h, 10 µM": "0.16 ×10⁻⁶ cm/s"}
{"smiles record": "NC1=CC(N)=C2C=CC(=O)N=C2C1=O", "Papp at 5 h, 10 µM": "0.095 ×10⁻⁶ cm/s"}
{"smiles record": "O=C(Nc1nc2cc(-c3ccccc3)ccn2n1)c1cccc(Cl)c1", "Papp at 5 h, 10 µM": "0.9 ×10⁻⁶ cm/s"}
{"smiles record": "O=C(Nc1nc2cc(-c3ccccc3)ccn2n1)c1cccc([N+](=O)[O-])c1", "Papp at 5 h, 10 µM": "0.15 ×10⁻⁶ cm/s"}

// moving on: another record for Papp at 5 h, 10 µM
Q: Quick one: Papp at 5 h, 10 µM for O=C(Nc1nc2cc(-c3cccnc3)ccn2n1)c1cccc(Cl)c1 ?
Result: 6.3 ×10⁻⁶ cm/s

----------
# protocol notes: Solubility of the compound in DMSO
# Type: physicochemical
endpoint name: solubility

{"smiles record": "O=C(Nc1nc2nc(-c3ccccc3)ccn2n1)c1cccc(Br)c1", "observed measurement": "Insoluble"}
{"smiles record": "O=C(Nc1nc2nc(-c3ccccc3)ccn2n1)c1cccc(C(F)(F)F)c1", "observed measurement": "Insoluble"}
{"smiles record": "N#Cc1cccc(C(=O)Nc2nc3nc(-c4ccccc4)ccn3n2)c1", "observed measurement": "Insoluble"}
{"smiles record": "O=C(Nc1nc2nc(-c3ccccc3)ccn2n1)c1ccc([N+](=O)[O-])cc1", "observed measurement": "Insoluble"}

Q: Would you mind telling me what solubility value was observed for O=C(Nc1nc2nc(-c3ccccc3)ccn2n1)c1ccccc1 ?
Result: Insoluble
